Target: hKv1.5 expressed in Chinese Hamster Ovary (CHO) cells (Homo sapiens, UniProt P22460)
Construct: expressed in transfected cells; host or cells: CHO-K1 cells (CHOKI in source), pcDNAI/Neo plasmid, G418-selected clones
Sequence (P22460 whole entry): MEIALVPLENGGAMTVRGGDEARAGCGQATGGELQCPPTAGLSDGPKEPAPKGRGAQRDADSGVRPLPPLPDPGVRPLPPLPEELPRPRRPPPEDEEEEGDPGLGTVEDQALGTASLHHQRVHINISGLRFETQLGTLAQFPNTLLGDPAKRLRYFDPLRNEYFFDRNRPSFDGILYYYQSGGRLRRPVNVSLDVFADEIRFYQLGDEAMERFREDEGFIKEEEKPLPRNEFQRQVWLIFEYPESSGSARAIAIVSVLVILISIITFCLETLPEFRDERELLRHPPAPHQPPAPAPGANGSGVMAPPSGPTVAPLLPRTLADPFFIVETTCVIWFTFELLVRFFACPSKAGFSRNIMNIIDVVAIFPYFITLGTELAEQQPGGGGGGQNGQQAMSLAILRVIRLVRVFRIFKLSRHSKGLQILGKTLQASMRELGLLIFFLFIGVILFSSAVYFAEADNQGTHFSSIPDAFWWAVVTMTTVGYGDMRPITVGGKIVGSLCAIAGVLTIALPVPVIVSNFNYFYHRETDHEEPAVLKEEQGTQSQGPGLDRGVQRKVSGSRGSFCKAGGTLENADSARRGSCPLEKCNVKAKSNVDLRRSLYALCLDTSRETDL
Experiment: Voltage clamp measurement of hKv1.5 block (rested state, use-dependent, rate-dependent) in CHO cells
Assay type: cell-based
Conditions: 100 nM, 10th pulse @ 1 Hz, read-out: Average % Block, Use-Dpdnt, 10th pulse
observed_property: inhibition at 0.1 µM (%)

Completed entries (count: 2):
{"molecule": "CC1CCC(C(C)C)C(P(=O)(c2ccccc2)c2ccccc2)C1 (stereo not shown)", "system": "hKv1.5 expressed in Chinese Hamster Ovary (CHO) cells (Homo sapiens, UniProt P22460)", "value_units": "%", "inhibition at 0.1 µM": 64.6}
{"molecule": "COc1ccc(-n2nc(Sc3ccc(C)cc3)c(C)c(C#N)c2=O)cc1", "system": "hKv1.5 expressed in Chinese Hamster Ovary (CHO) cells (Homo sapiens, UniProt P22460)", "value_units": "%", "inhibition at 0.1 µM": 34}

P. Cc1cc(C)c(CP(=O)(c2ccccc2)c2ccccc2)c(-c2ccc(F)c(C)c2)c1
Q. COc1ccc(-n2nc(Sc3ccc(Cl)cc3)c(C)c(C#N)c2=O)cc1
q: I'd appreciate it if you could identify which of P and Q has the greater inhibition at 0.1 µM. Return value: the label identifying the chosen record.
a: Q
(Q: 75.5%, P: 29.6%)
